# Test system: Fusobacterium nucleatum
# assay name: Inhibition of Fusobacterium nucleatum ATCC 25586 AI-2 assessed as decrease in biofilm formation at 0.02 to 0.2 uM
Calls of active or inactive are those of the source. No cut-off for these calls is given here.
Respond only with the outcome that fits, drawn from T = active, F = inactive

Observe how each entry below is paired with its result.
{"molecule": "O=C1OC(=C(Br)Br)C2CCCC12 (stereo unspecified)", "label": "T"}
{"molecule": "CCCCCOc1cccc2c1C(=O)OC2=C(Br)Br", "label": "F"}
{"molecule": "CCCOc1ccc2c(c1)C(=C(Br)Br)OC2=O", "label": "F"}
{"molecule": "Cc1ccc2c(c1)C(=C(Br)Br)OC2=O", "label": "T"}
{"molecule": "CCOc1ccc2c(c1)C(=C(Br)Br)OC2=O", "label": "F"}
{"molecule": "O=C1OC(=C(Br)Br)C2CCCCC12 (stereo unspecified)", "label": "F"}
{"molecule": "O=C1OC(=C(Br)Br)C2=C1CCC2", "label": "F"}
{"molecule": "CCCCCOc1ccc2c(c1)C(=C(Br)Br)OC2=O", "label": "F"}

// param item: `CCCCOc1ccc2c(c1)C(=C(Br)Br)OC2=O` ; yields the recorded call
F

Next entry: `O=C1OC(=C(Br)Br)C2=C1CCCC2`
F

Next entry: `Cc1cccc2c1C(=O)OC2=C(Br)Br`
T

Next entry: `O=C1OC(=C(Br)Br)c2ccccc21`
F

Next entry: `CCOc1cccc2c1C(=O)OC2=C(Br)Br`
F

###

Recorded Activity, one value per entry.
# Tested on: Fusobacterium nucleatum
# assay name: Inhibition of Fusobacterium nucleatum AI-2-mediated biofilm formation of Porphyromonas gingivalis ATCC 33277 assessed as biofilm average depth at 2 uM incubated for 48 hrs under anaerobic condition by confocal laser scanning microscopic method (reference value: 4.87 um)
Number only, in µm; omit the unit.

These solved cases illustrate the format of a correct answer.
{"compound": "O=C1C=C(Br)/C(=C/Br)O1", "quantity kind": "Activity", "test value": 2.05}
{"compound": "Cc1cccc2c1C(=O)OC2=C(Br)Br", "quantity kind": "Activity", "test value": 1.97}
{"compound": "Cc1ccc2c(c1)C(=C(Br)Br)OC2=O", "quantity kind": "Activity", "test value": 2.05}

Now consider the entry below.
// lookup Activity | system=Fusobacterium nucleatum | key= O=C1OC(=C(Br)Br)C2CCCC12 (centres undefined)
2.05

###

# System: Fusobacterium nucleatum
# assay name: Inhibition of Fusobacterium nucleatum AI-2-mediated biofilm formation of Porphyromonas gingivalis ATCC 33277 assessed as biofilm biomass at 2 uM incubated for 48 hrs under anaerobic condition by confocal laser scanning microscopic method (reference value: 3.73 um'3/um'2)
Recorded Activity, one value per entry.
Number only, in um3/um2; omit the unit.

{"compound": "Cc1cccc2c1C(=O)OC2=C(Br)Br", "quantity kind": "Activity", "test value": 0.27}

Item O=C1OC(=C(Br)Br)C2CCCC12 (centres undefined) has what recorded Activity?
0.31

Next entry: `O=C1C=C(Br)/C(=C/Br)O1`
0.3

Next entry: `Cc1ccc2c(c1)C(=C(Br)Br)OC2=O`
0.29

###

# assay name: Effect on host cell immune response in human gingival fibroblasts assessed as upregulation of IL-8 mRNA expression at 2 uM after 24 hrs by RT-PCR method
# Type: ADME

{"compound": "O=C1OC(=C(Br)Br)C2CCCC12 (centres undefined)", "Activity": "Non-Toxic"}
{"compound": "O=C1C=C(Br)/C(=C/Br)O1", "Activity": "Toxic"}
{"compound": "Cc1ccc2c(c1)C(=C(Br)Br)OC2=O", "Activity": "Non-Toxic"}
{"compound": "Cc1cccc2c1C(=O)OC2=C(Br)Br", "Activity": "Non-Toxic"}

###

Recorded Activity, one value per entry.
# System: Fusobacterium nucleatum
# assay name: Inhibition of Fusobacterium nucleatum AI-2-mediated biofilm formation of Fusobacterium nucleatum ATCC 25586 assessed as biofilm formation at 2 uM incubated for 48 hrs under anaerobic condition by crystal violet staining-based assay (reference value: 100%)
# Design: scale not given: the % may be the effect or the level left
Number only, in %; omit the unit.

These solved cases illustrate the format of a correct answer.
{"compound": "O=C1OC(=C(Br)Br)C2CCCC12 (centres undefined)", "Activity / %": 38.8}
{"compound": "O=C1C=C(Br)/C(=C/Br)O1", "Activity / %": 55.6}
{"compound": "Cc1cccc2c1C(=O)OC2=C(Br)Br", "Activity / %": 33.2}

Now consider the entry below.
// lookup Activity | system=Fusobacterium nucleatum | key= `Cc1ccc2c(c1)C(=C(Br)Br)OC2=O`
32.1

###

# Tested on: THP-1
# assay name: Effect on host cell immune response in human THP1 cells assessed as upregulation of IL-8 mRNA expression at 2 uM after 24 hrs by RT-PCR method
# Type: ADME, cell-based
# condition set: thp-1, 24 h

{"compound": "O=C1OC(=C(Br)Br)C2CCCC12 (centres undefined)", "Activity": "Non-Toxic"}
{"compound": "Cc1ccc2c(c1)C(=C(Br)Br)OC2=O", "Activity": "Non-Toxic"}
{"compound": "O=C1C=C(Br)/C(=C/Br)O1", "Activity": "Toxic"}
{"compound": "Cc1cccc2c1C(=O)OC2=C(Br)Br", "Activity": "Non-Toxic"}

###

# Test system: THP-1
# assay name: Effect on host cell immune response in human THP1 cells assessed as upregulation of IL-6 mRNA expression at 2 uM after 24 hrs by RT-PCR method
# Type: ADME, cell-based
# condition set: thp-1, 24 h

{"compound": "O=C1C=C(Br)/C(=C/Br)O1", "assay target": "THP-1", "Activity": "Toxic"}
{"compound": "O=C1OC(=C(Br)Br)C2CCCC12 (centres undefined)", "assay target": "THP-1", "Activity": "Non-Toxic"}
{"compound": "Cc1cccc2c1C(=O)OC2=C(Br)Br", "assay target": "THP-1", "Activity": "Non-Toxic"}
{"compound": "Cc1ccc2c(c1)C(=C(Br)Br)OC2=O", "assay target": "THP-1", "Activity": "Non-Toxic"}

###

# Test system: Fusobacterium nucleatum
# assay name: Inhibition of Fusobacterium nucleatum AI-2-mediated biofilm formation of Tannerella forsythia ATCC 43037 assessed as biofilm average depth at 2 uM incubated for 48 hrs under anaerobic condition by confocal laser scanning microscopic method (reference value: 5.29 um)
Recorded Activity, one value per entry.
Number only, in µm; omit the unit.

{"compound": "O=C1OC(=C(Br)Br)C2CCCC12 (centres undefined)", "test value": 2.27}
{"compound": "O=C1C=C(Br)/C(=C/Br)O1", "test value": 2.18}
{"compound": "Cc1cccc2c1C(=O)OC2=C(Br)Br", "test value": 2.41}

Now consider the entry below.
Item `Cc1ccc2c(c1)C(=C(Br)Br)OC2=O` has what recorded Activity?
1.94

###

# System: Fusobacterium nucleatum
# assay name: Inhibition of Fusobacterium nucleatum AI-2-mediated biofilm formation of Fusobacterium nucleatum ATCC 25586 assessed as biofilm biomass at 2 uM incubated for 48 hrs under anaerobic condition by confocal laser scanning microscopic method (reference value: 2.99 um'3/um'2)
quantity kind: Activity
Just so you know, I need the unit written after the number.

{"compound": "O=C1OC(=C(Br)Br)C2CCCC12 (centres undefined)", "assay target": "Fusobacterium nucleatum", "quantity kind": "Activity", "test value": "0.39 um3/um2"}

Item `Cc1cccc2c1C(=O)OC2=C(Br)Br` has what recorded Activity?
0.32 um3/um2

Next entry: `O=C1C=C(Br)/C(=C/Br)O1`
0.42 um3/um2

Next entry: `Cc1ccc2c(c1)C(=C(Br)Br)OC2=O`
0.38 um3/um2

###

Recorded Activity, one value per entry.
# Test system: Fusobacterium nucleatum
# assay name: Inhibition of Fusobacterium nucleatum AI-2-mediated biofilm formation of Tannerella forsythia ATCC 43037 assessed as biofilm biomass at 2 uM incubated for 48 hrs under anaerobic condition by confocal laser scanning microscopic method (reference value: 4.05 um'3/um'2)
Number only, in um3/um2; omit the unit.

These solved cases illustrate the format of a correct answer.
{"compound": "O=C1C=C(Br)/C(=C/Br)O1", "assay target": "Fusobacterium nucleatum", "measure unit": "um3/um2", "Activity": 0.77}
{"compound": "O=C1OC(=C(Br)Br)C2CCCC12 (centres undefined)", "assay target": "Fusobacterium nucleatum", "measure unit": "um3/um2", "Activity": 0.93}

// lookup Activity | system=Fusobacterium nucleatum | key= `Cc1cccc2c1C(=O)OC2=C(Br)Br`
0.88

Next entry: `Cc1ccc2c(c1)C(=C(Br)Br)OC2=O`
0.59

###

# System: Fusobacterium nucleatum
# assay name: Inhibition of Fusobacterium nucleatum AI-2-mediated biofilm formation of Porphyromonas gingivalis ATCC 33277 assessed as biofilm formation at 2 uM incubated for 48 hrs under anaerobic condition by crystal violet staining-based assay (reference value: 100%)
# Set-up: scale not given: the % may be the effect or the level left
Recorded Activity, one value per entry.
Number only, in %; omit the unit.

{"molecule": "Cc1ccc2c(c1)C(=C(Br)Br)OC2=O", "Activity, %": 34.7}
{"molecule": "O=C1C=C(Br)/C(=C/Br)O1", "Activity, %": 39.2}
{"molecule": "O=C1OC(=C(Br)Br)C2CCCC12 (centres undefined)", "Activity, %": 48.4}

Item `Cc1cccc2c1C(=O)OC2=C(Br)Br` has what recorded Activity?
29.3
